# System: Jurkat
# Test: Antiproliferative assay (resazurin, 72 h)
# Format: cell-based, human
# Condition Summary: Homo sapiens, Jurkat; Table 1; mean ± SE; 72 h
Measure Name: IC50 (nM)

Example cases with answers are listed next.
                                   compound  measure_name  unit_spec  readout_value
0  COc1ccc(/C=C\c2cc(OC)c(OC)c(OC)c2)cc1O [CA-4, combretastatin A-4, reference compound]          IC50         nM              1
1  COc1cc(Nc2cc(C)nc3nc(NCc4cccc(Cl)c4)nn23)cc(OC)c1OC          IC50         nM           4720

(P) COc1cc(Nc2cc(C)nc3nc(Nc4ccc(C)cc4)nn23)cc(OC)c1OC
(Q) COc1ccc(CCNc2nc3nc(C)cc(Nc4cc(OC)c(OC)c(OC)c4)n3n2)cc1
[Q] Of the two listed items, which has the higher IC50? First: P Second: Q Refer to your chosen item by its label in the answer.
[A] Q

* * *

# Test system: A549, MDA-MB-231, HeLa, HT-29 and Jurkat cancer cell lines
# Test: Antiproliferative activity over the panel of cancer cell lines
# Format: cell-based, human
# Condition Summary: Homo sapiens, all five lines; read-out: IC50 values against all five lines
pIC50: −log10 of the molar value.
Measure Name: pIC50

>>> df
                                   molecule  readout_value
0  COc1cc(Nc2cc(C)nc3nc(NCc4ccc(Cl)cc4)nn23)cc(OC)c1OC [Compound 7n]         > 6.00
1  COc1cc(Nc2cc(C)nc3nc(NCc4ccc(C)cc4)nn23)cc(OC)c1OC [Compound 7p]         > 6.00

Continue with the molecule presented below.
[Q] // fetch pIC50 given entry COc1cc(Nc2cc(C)nc3nc(NCc4ccc5c(c4)OCO5)nn23)cc(OC)c1OC [Compound 7y]
[A] > 6.00

* * *

# System: A549
# Test: Antiproliferative assay (resazurin, 72 h)
# Assay type: cell-based, human
# Condition Summary: Homo sapiens, A549, Table 1, mean ± SE
pIC50: −log10 of the molar value.
Measure Name: pIC50

>>> print(df.to_string())
                                   compound  readout_value
0  COc1cc(Nc2cc(C)nc3nc(NCc4ccccc4C)nn23)cc(OC)c1OC [Compound 7r]           5.72
1  COc1cc(Nc2cc(C)nc3nc(Nc4ccc(F)cc4)nn23)cc(OC)c1OC [Compound 7e]           5.99
2  COc1cc(Nc2cc(C)nc3nc(-c4ccc(F)cc4)nn23)cc(OC)c1OC [Compound 7a]           5.57

(P) COc1ccc(CCNc2nc3nc(C)cc(Nc4cc(OC)c(OC)c(OC)c4)n3n2)cc1 [Compound 7ac]
(Q) COc1ccc(CNc2nc3nc(C)cc(Nc4cc(OC)c(OC)c(OC)c4)n3n2)cc1OC [Compound 7v]
[Q] Hi there, can you help? I need to know whether P or Q has lower measured pIC50. Refer to your chosen item by its label in the answer.
[A] P
(P: 5.05, Q: 6.00)

* * *

# Tested on: Jurkat
# Test: Antiproliferative assay (resazurin, 72 h)
# Format: cell-based, human
# Condition Summary: Table 1; mean ± SE; 72 h
Measure Name: pIC50
On this scale, pIC50 is minus log10 of a concentration expressed in M (mol/L).

[Q] Under Jurkat: report pIC50 of COc1cc(Nc2cc(C)nc3nc(NCCCc4ccccc4)nn23)cc(OC)c1OC .
[A] 5.57

Reference source: paper PMC9230136
